Hey, just so you know, these numbers are from ChEMBL document CHEMBL2169817.

Assay protocol: Toxicity in iv dosed Balb/c nude mouse administered as doxorubicin equivalents once a week for 3 weeks
Format: organism-based
Assay conditions: in vivo
Measured MTD at 504 h accompanies every entry in the list below.
Numbers only; they are read as mg/kg.

Reference set (2 entries):
COc1cccc2c1C(=O)c1c(O)c3c(c(O)c1C2=O)C[C@@](O)(/C(CO)=N/NC(=O)CCCCCN1C(=O)CC(SCCCSCC(P(=O)(O)O)P(=O)(O)O)C1=O)C[C@@H]3O[C@H]1C[C@H](N)[C@H](O)[C@H](C)O1.Cl.N.N.N.N (stereo partly drawn); 24
COc1cccc2c1C(=O)c1c(O)c3c(c(O)c1C2=O)C[C@@](O)(C(=O)CO)C[C@@H]3O[C@H]1C[C@H](NC(=O)OCc2ccc(NC(=O)[C@H](C)NC(=O)[C@@H](NC(=O)CCCCCN3C(=O)CC(SCCCSCC(P(=O)(O)O)P(=O)(O)O)C3=O)C(C)C)cc2)[C@H](O)[C@H](C)O1.N.N.N.N (stereo partly drawn); 8

// moving on: another record for MTD at 504 h
Which value of MTD at 504 h has been reported for COc1cccc2c1C(=O)c1c(O)c3c(c(O)c1C2=O)C[C@@](O)(C(=O)CO)C[C@@H]3O[C@H]1C[C@H](N)[C@H](O)[C@H](C)O1 in the records?
8
